Numbers sourced from patent US10052331B2.

System: primary human fibroblasts derived from IPF patients (LL29 cells)
Experiment: Inhibition of fibrotic process: αSMA staining in TGF-β1-treated primary human fibroblasts from IPF patients (LL29 cells)
Format: cell-based
Details: Fibroblast, 96 h, LL29 cells treated with TGF-β1 (20 ng/mL), 4 days, 11-point dose-response from 10 μM to 1.87 nM, read-out: Inhibition of fibrosis EC50
Readout name: EC50

Recorded EC50, per entry:
Smiles text: CC(C)(C)C(=O)Nc1cncc(-c2cc3c(-c4nc5c(-c6ccccc6F)cncc5[nH]4)n[nH]c3cn2)c1
Observed measurement: ≥ 9.99 µM
--
Smiles text: c1ccc(CNCc2cncc(-c3cc4c(-c5nc6c(-c7cccnc7)cncc6[nH]5)n[nH]c4cn3)c2)cc1
Observed measurement: ≥ 9.99 µM
--
Smiles text: Cc1ccncc1-c1cc2c(-c3nc4c(-c5cc(F)cc(CNS(C)(=O)=O)c5)cncc4[nH]3)n[nH]c2cn1
Observed measurement: ≤ 0.009 µM

Identify measured EC50 associated with `CCCCC(=O)Nc1cncc(-c2cc3c(-c4nc5c(-c6ccccn6)cncc5[nH]4)n[nH]c3cn2)c1`
≥ 9.99 µM

---

# maps each entry to its EC50
Test system: primary human fibroblasts derived from IPF patients (LL29 cells)
Test: Inhibition of fibrotic process: αSMA staining in TGF-β1-treated primary human fibroblasts from IPF patients (LL29 cells)
Type: cell-based
Conditions: Fibroblast, 96 h, LL29 cells treated with TGF-β1 (20 ng/mL), 4 days, 11-point dose-response from 10 μM to 1.87 nM, read-out: Inhibition of fibrosis EC50

Smiles text: Fc1cccc(-c2cncc3[nH]c(-c4n[nH]c5cnc(-c6ccncc6)cc45)nc23)c1
EC50: ≤ 0.009 µM

Smiles text: c1cncc(-c2cc3c(-c4nc5c(-c6cccnc6)cncc5[nH]4)n[nH]c3cn2)c1
EC50: ≥ 9.99 µM

Smiles text: O=C(CC1CCNCC1)Nc1cncc(-c2cc3c(-c4nc5c(-c6cccc(F)c6)cncc5[nH]4)n[nH]c3cn2)c1
EC50: ≥ 9.99 µM

Smiles text: CC(C)C(=O)Nc1cncc(-c2cc3c(-c4nc5c(N6CCN(C)CC6)cncc5[nH]4)n[nH]c3cn2)c1
EC50: ≥ 9.99 µM

Smiles text: CN(C)CCOc1cncc(-c2cc3c(-c4nc5c(-c6cccc(F)c6)cncc5[nH]4)n[nH]c3cn2)c1
EC50: ≥ 9.99 µM

Identify measured EC50 associated with `CCNCc1cncc(-c2cc3c(-c4nc5c(-c6ccc(F)cc6)cncc5[nH]4)n[nH]c3cn2)c1`
≤ 0.009 µM

Identify measured EC50 associated with `CCCC(=O)Nc1cncc(-c2cc3c(-c4nc5c(-c6ccsc6)cncc5[nH]4)n[nH]c3cn2)c1`
≤ 0.009 µM

Identify measured EC50 associated with `CS(=O)(=O)NCc1cc(F)cc(-c2cncc3[nH]c(-c4n[nH]c5cnc(-c6cncc(CNCc7ccccc7)c6)cc45)nc23)c1`
≥ 9.99 µM

Identify measured EC50 associated with `Cc1ccc(-c2cncc3[nH]c(-c4n[nH]c5cnc(-c6cncc(NC(=O)C(C)C)c6)cc45)nc23)s1`
≤ 0.009 µM

---

Test system: primary human fibroblasts derived from IPF patients (LL29 cells)
Assay: Inhibition of fibrotic process: αSMA staining in TGF-β1-treated primary human fibroblasts from IPF patients (LL29 cells)
Type: cell-based
Settings: Fibroblast, 96 h, LL29 cells treated with TGF-β1 (20 ng/mL), 4 days, 11-point dose-response from 10 μM to 1.87 nM, read-out: Inhibition of fibrosis EC50
Readout name: pEC50
Keep in mind that pEC50 stands for -log10 of concentration in molar terms.

Identify measured pEC50 associated with CCCCC(=O)Nc1cncc(-c2cc3c(-c4nc5c(-c6cc(F)cc(NCCN(C)C)c6)cncc5[nH]4)n[nH]c3cn2)c1 [Compound 434]
5.08

Identify measured pEC50 associated with Cc1ncc(-c2cc3c(-c4nc5c(-c6cccc(F)c6)cncc5[nH]4)n[nH]c3cn2)n1C [Compound 889]
7.34
